subjectOfTest: HDAC 1 (Homo sapiens)
Sequence (Q13547 whole entry, species assumed): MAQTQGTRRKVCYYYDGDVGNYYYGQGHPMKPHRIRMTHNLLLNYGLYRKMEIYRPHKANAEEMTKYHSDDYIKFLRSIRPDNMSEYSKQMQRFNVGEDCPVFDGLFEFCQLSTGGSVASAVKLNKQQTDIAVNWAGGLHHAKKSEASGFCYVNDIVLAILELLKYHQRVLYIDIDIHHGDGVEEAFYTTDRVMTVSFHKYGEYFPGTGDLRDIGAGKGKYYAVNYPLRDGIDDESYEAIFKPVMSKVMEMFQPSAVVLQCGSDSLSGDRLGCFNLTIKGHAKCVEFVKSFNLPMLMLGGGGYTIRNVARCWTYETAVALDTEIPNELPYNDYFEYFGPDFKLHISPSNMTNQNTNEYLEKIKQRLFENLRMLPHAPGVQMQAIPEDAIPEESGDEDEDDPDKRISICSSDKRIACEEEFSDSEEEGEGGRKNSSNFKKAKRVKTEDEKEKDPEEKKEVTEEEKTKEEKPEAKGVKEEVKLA
assay: HDAC 1 inhibition assay with about 3 hours preincubation of enzyme and compound
Format: biochemical
conditionDetails: read-out: HDAC 1 inhibitory activity (IC50 [μM]) (3-hour preincubation)
// returns false unless IC50 is strictly below 0.05 µM, in which case true

{"columns": ["compound", "labelClass"],
 "data": [
  ["Cc1ncc(-c2ccnc(Nc3ccc(C(=O)Nc4cc(-c5cccs5)ccc4N)cc3)n2)n1C(C)C [Example 3]", "true"],
  ["Cc1ncc(-c2ccnc(Nc3ccc(C(=O)NO)s3)n2)n1C(C)C [Example 8]", "false"],
  ["Cc1ncc(-c2ccnc(Nc3ncc(C(=O)Nc4cc(-c5cccs5)ccc4N)s3)n2)n1C(C)C [Example 16]", "true"],
  ["Cc1ncc(-c2cnnc(Nc3ccc(C(=O)Nc4ccccc4N)cc3)n2)n1C(C)C [Example 5]", "false"],
  ["Cc1ncc(-c2ccnc(Nc3ccc(C(=O)Nc4ccccc4N)cc3)n2)n1C(C)C [Example 1]", "false"],
  ["Cc1ncc(-c2ccnc(Nc3ccc(C(=O)Nc4cc(C(F)(F)F)ccc4N)cc3)n2)n1C(C)C [Example 6]", "false"],
  ["Cc1ncc(-c2ccnc(Nc3ccc(C(=O)Nc4ccccc4N)s3)n2)n1C(C)C [Example 11]", "false"],
  ["Cc1ncc(-c2ccnc(Nc3ccc(C(=O)Nc4cc(-c5ccc(F)cc5)ccc4N)cc3)n2)n1C(C)C [Example 9]", "true"],
  ["Cc1ncc(-c2ccnc(Nc3ccc(C(=O)Nc4cc(-c5cccs5)ccc4N)s3)n2)n1C(C)C [Example 10]", "true"],
  ["Cc1ncc(-c2ccnc(Nc3ccc(C(=O)Nc4cc(-c5ccc(F)cc5)ccc4N)s3)n2)n1C(C)C [Example 13]", "false"]
]}
